system: HepG2 viability, CellTiter-Glo ATP luminescence, 72 h; assay: viability loss in human hepatoma cells – cell-based, CellTiter-Glo luminescence, cherry-pick, set 2, cytotoxicity control, dose response (AID 743395)
Readings of AC35 for the listed compounds

[
  {
    "compound": "CCN(CC)c1ccc(/C=N/NC(=O)c2cnccn2)cc1",
    "target entity": "HepG2 viability, CellTiter-Glo ATP luminescence, 72 h",
    "experimental result": "6.68 µM"
  },
  {
    "compound": "CC[n+]1c(-c2ccccc2)c2cc(N)ccc2c2ccc(N)cc21",
    "target entity": "HepG2 viability, CellTiter-Glo ATP luminescence, 72 h",
    "experimental result": "21.5 µM"
  },
  {
    "compound": "Cc1cc(C)c2nc(Cl)c(CN(Cc3ccco3)C(=O)Nc3ccccc3C)cc2c1",
    "target entity": "HepG2 viability, CellTiter-Glo ATP luminescence, 72 h",
    "experimental result": "5.84 µM"
  },
  {
    "compound": "O=C(NCCOc1ccccc1)c1cc([N+](=O)[O-])ccc1N1CCOCC1",
    "target entity": "HepG2 viability, CellTiter-Glo ATP luminescence, 72 h",
    "experimental result": "6.79 µM"
  },
  {
    "compound": "CCOC(=O)c1c(NC(=O)C(=O)N/N=C/c2ccccc2O)sc2c1CCCCC2",
    "target entity": "HepG2 viability, CellTiter-Glo ATP luminescence, 72 h",
    "experimental result": "13.7 µM"
  }
]

Field AC35 (entry COc1cc(OC)c2c(-c3cccc(-c4cccc(N)c4)c3)cc(=O)oc2c1 ) reads 13.4 µM

Field AC35 (entry CC1=Nc2cc(C(=O)NCC3CCCO3)ccc2Sc2ccc(C)cc21 (stereo unspecified) ) reads 13.5 µM
